assay: soluble on expression in E. coli; label from the status in PepcDB or PDB records
observable: soluble on expression in E. coli

MLDDVLALIREHDRFFITTHLGPDGDAVGSQLALGRFLEKMGKSVAMVNADEVDYNLDWMPGAGDIAVFDGSLGQHEALAEAEVAFVLDTNDEERIGKVGSLVRDATATTVLVDHHLEPEHWFDVFFVREEAAATGELVYEIIDGLAPDLIDEGIATALYTAIMTDTGSFRYSSVTPALHRSVADILERGGIGPAPIHETIYDRKSMPGLRLLGRMLNRIRLRYNGQLGYSVVTQRMVEDTGASWDDKQGFVNYVLSIEDVKTALLFSETDDGAKISFRSEADVRVDQWARHFGGGGHRNAAGAYVKRPTFEKTIETVIDAASDYIAFDARHAPDDDLSPEDQSYLETLLDDPSDSPLEHHHHHH : not soluble
MLFDLGYVDLQDRSNAEILTHLITKKAILLLGDKQNPADLLAIQDEVQERYLVNFSLFQSMPDFWGLEQNFPIMPLDRLDEEPTRSASIWDITCDSDGEISYSKDKPLFLHDVDVEKENYFLGFFLVGAYQEVLGMKHNLFTHPTEAIISINEKGYEVEGIIEAQSILDTLEDLDYDIHAILEHHHHHH : not soluble
